# experimental-details: Plasma stability in frozen human plasma
# Format: in vitro ADME
# test-context: frozen human plasma at 37° C., 0-3 hr; read-out: T1/2 Human Plasma (converted)
hey, just use y if measured half-life is less than 70 min, otherwise n

- molecular-string: "C#C[C@]1(CO[P@@](=O)(N[C@@H](C)C(=O)OC(C)C)Oc2ccccc2)O[C@@H](n2ccc3c(N)nc(Cl)nc32)C[C@@H]1O"
  assigned-class: "n"
- molecular-string: "C#C[C@]1(CO)O[C@@H](n2ccc3c(N)nc(Cl)nc32)C[C@@H]1OC(=O)Oc1ccccc1"
  assigned-class: "y"
- molecular-string: "C#C[C@]1(COC(=O)OCCCCC)O[C@@H](n2ccc3c(N)nc(Cl)nc32)C[C@@H]1O"
  assigned-class: "y"
- molecular-string: "C#C[C@]1(COC(=O)OC(C)C)O[C@@H](n2ccc3c(N)nc(Cl)nc32)C[C@@H]1O"
  assigned-class: "y"
- molecular-string: "C#C[C@]1(CO)O[C@@H](n2ccc3c(N)nc(Cl)nc32)C[C@@H]1OC(=O)OC(C)C"
  assigned-class: "n"
- molecular-string: "C#C[C@]1(COC(=O)CCCC)O[C@@H](n2ccc3c(N)nc(Cl)nc32)C[C@@H]1OC(=O)CCCC"
  assigned-class: "y"
- molecular-string: "C#C[C@]1(CO)O[C@@H](n2ccc3c(N)nc(Cl)nc32)C[C@@H]1OC(=O)CCCC"
  assigned-class: "n"
- molecular-string: "C#C[C@]1(COC(=O)C(CC)CC)O[C@@H](n2ccc3c(N)nc(Cl)nc32)C[C@@H]1O"
  assigned-class: "n"
- molecular-string: "C#C[C@]1(CO)O[C@@H](n2ccc3c(N)nc(Cl)nc32)C[C@@H]1OC(=O)C(C)C"
  assigned-class: "n"
- molecular-string: "C#C[C@]1(COC(=O)C(C)C)O[C@@H](n2ccc3c(N)nc(Cl)nc32)C[C@@H]1O"
  assigned-class: "y"
- molecular-string: "C#C[C@]1(COC(=O)C(CC)CC)O[C@@H](n2ccc3c(N)nc(Cl)nc32)C[C@@H]1OC(=O)C(CC)CC"
  assigned-class: "n"
- molecular-string: "C#C[C@]1(COC(=O)CCCC)O[C@@H](n2ccc3c(N)nc(Cl)nc32)C[C@@H]1O"
  assigned-class: "y"
- molecular-string: "C#C[C@]1(COC(=O)c2ccccc2)O[C@@H](n2ccc3c(N)nc(Cl)nc32)C[C@@H]1OC(=O)c1ccccc1"
  assigned-class: "y"
- molecular-string: "C#C[C@]1(COC(=O)C(C)C)O[C@@H](n2ccc3c(N)nc(Cl)nc32)C[C@@H]1OC(=O)C(C)C"
  assigned-class: "y"
- molecular-string: "C#C[C@]1(COC(=O)c2ccccc2)O[C@@H](n2ccc3c(N)nc(Cl)nc32)C[C@@H]1O"
  assigned-class: "y"
- molecular-string: "C#C[C@]1(CO)O[C@@H](n2ccc3c(N)nc(Cl)nc32)C[C@@H]1OC(=O)c1ccccc1"
  assigned-class: "n"
- molecular-string: "C#C[C@]1(CO)O[C@@H](n2ccc3c(N)nc(Cl)nc32)C[C@@H]1OC(=O)C(CC)CC"
  assigned-class: "n"
